B1: glmS ribozyme (parent)
chain: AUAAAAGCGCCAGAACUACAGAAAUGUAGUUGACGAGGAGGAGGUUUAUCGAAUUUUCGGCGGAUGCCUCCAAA

Variants of: B1
Assay: self-cleavage kobs at 640 uM GlcN6P; higher = faster cleavage; RNA array
Settings: with glucosamine-6-phosphate
Variants at the floor of the assay were thinned out.
Listing: self-cleavage kobs at 640 uM GlcN6P of selected variants

Below are worked cases with known answers.
| MUTANT_LABEL | MEASURED_VALUE |
| --- | --- |
| U30G U56A | 0.00146 s⁻¹ |
| U65C | 0.000238 s⁻¹ |
| G41C C71U | 3.67e-05 s⁻¹ |

Let us examine a further case.
Ask: Would you kindly share the measured self-cleavage kobs at 640 uM GlcN6P for C10U G60A C67A ?
Result: < 1e-05 s⁻¹

Reference source: the supplement of paper PMC7125110
